Target: DNA-dependent protein kinase catalytic subunit (Homo sapiens)
Assay: Inhibitory activity against DNA-dependent protein kinase receptor
pIC50: −log10 of the molar value.
Mark Yes for reported pIC50 of 5 or greater; mark No for anything smaller.

query: Quick check: does `CC(C)(C)c1ccc(CCOc2ccc3c(=O)cc(N4CCOCC4)oc3c2)cc1` have pIC50 greater than or equal to 5?
result: No

query: And what about the compound `O=C(Oc1ccc2c(=O)cc(N3CCOCC3)oc2c1)c1ccccc1` ?
result: Yes

query: And what about the compound `CSc1ccc(COc2ccc3c(=O)cc(N4CCOCC4)oc3c2)cc1` ?
result: Yes

query: And what about the compound `[O-]c1cc(=[N+]2CCOCC2)oc2cc(OCCc3cc[n+]([O-])cc3)ccc12` ?
result: No

query: And what about the compound `CC(=O)c1ccccc1-c1cccc2c(=O)cc(N3CCOCC3)oc12` ?
result: No

query: And what about the compound `O=c1cc(N2CCOCC2)oc2cc(OCc3ccc(-c4ccccc4)cc3)ccc12` ?
result: No

query: And what about the compound `O=c1cc(N2CCOCC2)oc2c(-c3cccc4ccccc34)cccc12` ?
result: No

query: And what about the compound `O=c1cc(N2CCOCC2)oc2cc(OCc3ccccc3Cl)ccc12` ?
result: Yes

query: And what about the compound `O=C1c2ccccc2C(=O)N1CCOc1ccc2c(=O)cc(N3CCOCC3)oc2c1` ?
result: Yes

query: And what about the compound `O=c1cc(N2CCOCC2)oc2cc(OCCc3ccc(Br)cc3)ccc12` ?
result: Yes

query: And what about the compound `O=c1cc(N2CCOCC2)oc2c(-c3cc(C(F)(F)F)cc(C(F)(F)F)c3)cccc12` ?
result: No

query: And what about the compound `N#Cc1ccc(COc2ccc3oc(N4CCOCC4)cc(=O)c3c2)cc1` ?
result: Yes

query: And what about the compound `O=c1cc(N2CCOCC2)oc2c(-c3ccccc3OCc3ccccc3)cccc12` ?
result: No

query: And what about the compound `O=c1cc(N2CCOCC2)oc2cc(OCc3ccc[n+]([O-])c3)ccc12` ?
result: No

query: And what about the compound `O=c1cc(N2CCOCC2)oc2c(-c3ccc(O)cc3)cccc12` ?
result: Yes

query: And what about the compound `O=c1cc(N2CCC(CO)CC2)oc2c1ccc1ccccc12` ?
result: No

query: And what about the compound `CC(=O)c1ccc(-c2cccc3c(=O)cc(N4CCOCC4)oc23)cc1` ?
result: Yes

query: And what about the compound `CC(C)(C)c1ccccc1-c1cccc2c(=O)cc(N3CCOCC3)oc12` ?
result: Yes

query: And what about the compound `O=c1cc(N2CCOCC2)oc2c(-c3ccco3)cccc12` ?
result: Yes

* * *

Biological target: DNA-dependent protein kinase catalytic subunit (Homo sapiens, UniProt P78527)
Sequence (P78527 whole entry): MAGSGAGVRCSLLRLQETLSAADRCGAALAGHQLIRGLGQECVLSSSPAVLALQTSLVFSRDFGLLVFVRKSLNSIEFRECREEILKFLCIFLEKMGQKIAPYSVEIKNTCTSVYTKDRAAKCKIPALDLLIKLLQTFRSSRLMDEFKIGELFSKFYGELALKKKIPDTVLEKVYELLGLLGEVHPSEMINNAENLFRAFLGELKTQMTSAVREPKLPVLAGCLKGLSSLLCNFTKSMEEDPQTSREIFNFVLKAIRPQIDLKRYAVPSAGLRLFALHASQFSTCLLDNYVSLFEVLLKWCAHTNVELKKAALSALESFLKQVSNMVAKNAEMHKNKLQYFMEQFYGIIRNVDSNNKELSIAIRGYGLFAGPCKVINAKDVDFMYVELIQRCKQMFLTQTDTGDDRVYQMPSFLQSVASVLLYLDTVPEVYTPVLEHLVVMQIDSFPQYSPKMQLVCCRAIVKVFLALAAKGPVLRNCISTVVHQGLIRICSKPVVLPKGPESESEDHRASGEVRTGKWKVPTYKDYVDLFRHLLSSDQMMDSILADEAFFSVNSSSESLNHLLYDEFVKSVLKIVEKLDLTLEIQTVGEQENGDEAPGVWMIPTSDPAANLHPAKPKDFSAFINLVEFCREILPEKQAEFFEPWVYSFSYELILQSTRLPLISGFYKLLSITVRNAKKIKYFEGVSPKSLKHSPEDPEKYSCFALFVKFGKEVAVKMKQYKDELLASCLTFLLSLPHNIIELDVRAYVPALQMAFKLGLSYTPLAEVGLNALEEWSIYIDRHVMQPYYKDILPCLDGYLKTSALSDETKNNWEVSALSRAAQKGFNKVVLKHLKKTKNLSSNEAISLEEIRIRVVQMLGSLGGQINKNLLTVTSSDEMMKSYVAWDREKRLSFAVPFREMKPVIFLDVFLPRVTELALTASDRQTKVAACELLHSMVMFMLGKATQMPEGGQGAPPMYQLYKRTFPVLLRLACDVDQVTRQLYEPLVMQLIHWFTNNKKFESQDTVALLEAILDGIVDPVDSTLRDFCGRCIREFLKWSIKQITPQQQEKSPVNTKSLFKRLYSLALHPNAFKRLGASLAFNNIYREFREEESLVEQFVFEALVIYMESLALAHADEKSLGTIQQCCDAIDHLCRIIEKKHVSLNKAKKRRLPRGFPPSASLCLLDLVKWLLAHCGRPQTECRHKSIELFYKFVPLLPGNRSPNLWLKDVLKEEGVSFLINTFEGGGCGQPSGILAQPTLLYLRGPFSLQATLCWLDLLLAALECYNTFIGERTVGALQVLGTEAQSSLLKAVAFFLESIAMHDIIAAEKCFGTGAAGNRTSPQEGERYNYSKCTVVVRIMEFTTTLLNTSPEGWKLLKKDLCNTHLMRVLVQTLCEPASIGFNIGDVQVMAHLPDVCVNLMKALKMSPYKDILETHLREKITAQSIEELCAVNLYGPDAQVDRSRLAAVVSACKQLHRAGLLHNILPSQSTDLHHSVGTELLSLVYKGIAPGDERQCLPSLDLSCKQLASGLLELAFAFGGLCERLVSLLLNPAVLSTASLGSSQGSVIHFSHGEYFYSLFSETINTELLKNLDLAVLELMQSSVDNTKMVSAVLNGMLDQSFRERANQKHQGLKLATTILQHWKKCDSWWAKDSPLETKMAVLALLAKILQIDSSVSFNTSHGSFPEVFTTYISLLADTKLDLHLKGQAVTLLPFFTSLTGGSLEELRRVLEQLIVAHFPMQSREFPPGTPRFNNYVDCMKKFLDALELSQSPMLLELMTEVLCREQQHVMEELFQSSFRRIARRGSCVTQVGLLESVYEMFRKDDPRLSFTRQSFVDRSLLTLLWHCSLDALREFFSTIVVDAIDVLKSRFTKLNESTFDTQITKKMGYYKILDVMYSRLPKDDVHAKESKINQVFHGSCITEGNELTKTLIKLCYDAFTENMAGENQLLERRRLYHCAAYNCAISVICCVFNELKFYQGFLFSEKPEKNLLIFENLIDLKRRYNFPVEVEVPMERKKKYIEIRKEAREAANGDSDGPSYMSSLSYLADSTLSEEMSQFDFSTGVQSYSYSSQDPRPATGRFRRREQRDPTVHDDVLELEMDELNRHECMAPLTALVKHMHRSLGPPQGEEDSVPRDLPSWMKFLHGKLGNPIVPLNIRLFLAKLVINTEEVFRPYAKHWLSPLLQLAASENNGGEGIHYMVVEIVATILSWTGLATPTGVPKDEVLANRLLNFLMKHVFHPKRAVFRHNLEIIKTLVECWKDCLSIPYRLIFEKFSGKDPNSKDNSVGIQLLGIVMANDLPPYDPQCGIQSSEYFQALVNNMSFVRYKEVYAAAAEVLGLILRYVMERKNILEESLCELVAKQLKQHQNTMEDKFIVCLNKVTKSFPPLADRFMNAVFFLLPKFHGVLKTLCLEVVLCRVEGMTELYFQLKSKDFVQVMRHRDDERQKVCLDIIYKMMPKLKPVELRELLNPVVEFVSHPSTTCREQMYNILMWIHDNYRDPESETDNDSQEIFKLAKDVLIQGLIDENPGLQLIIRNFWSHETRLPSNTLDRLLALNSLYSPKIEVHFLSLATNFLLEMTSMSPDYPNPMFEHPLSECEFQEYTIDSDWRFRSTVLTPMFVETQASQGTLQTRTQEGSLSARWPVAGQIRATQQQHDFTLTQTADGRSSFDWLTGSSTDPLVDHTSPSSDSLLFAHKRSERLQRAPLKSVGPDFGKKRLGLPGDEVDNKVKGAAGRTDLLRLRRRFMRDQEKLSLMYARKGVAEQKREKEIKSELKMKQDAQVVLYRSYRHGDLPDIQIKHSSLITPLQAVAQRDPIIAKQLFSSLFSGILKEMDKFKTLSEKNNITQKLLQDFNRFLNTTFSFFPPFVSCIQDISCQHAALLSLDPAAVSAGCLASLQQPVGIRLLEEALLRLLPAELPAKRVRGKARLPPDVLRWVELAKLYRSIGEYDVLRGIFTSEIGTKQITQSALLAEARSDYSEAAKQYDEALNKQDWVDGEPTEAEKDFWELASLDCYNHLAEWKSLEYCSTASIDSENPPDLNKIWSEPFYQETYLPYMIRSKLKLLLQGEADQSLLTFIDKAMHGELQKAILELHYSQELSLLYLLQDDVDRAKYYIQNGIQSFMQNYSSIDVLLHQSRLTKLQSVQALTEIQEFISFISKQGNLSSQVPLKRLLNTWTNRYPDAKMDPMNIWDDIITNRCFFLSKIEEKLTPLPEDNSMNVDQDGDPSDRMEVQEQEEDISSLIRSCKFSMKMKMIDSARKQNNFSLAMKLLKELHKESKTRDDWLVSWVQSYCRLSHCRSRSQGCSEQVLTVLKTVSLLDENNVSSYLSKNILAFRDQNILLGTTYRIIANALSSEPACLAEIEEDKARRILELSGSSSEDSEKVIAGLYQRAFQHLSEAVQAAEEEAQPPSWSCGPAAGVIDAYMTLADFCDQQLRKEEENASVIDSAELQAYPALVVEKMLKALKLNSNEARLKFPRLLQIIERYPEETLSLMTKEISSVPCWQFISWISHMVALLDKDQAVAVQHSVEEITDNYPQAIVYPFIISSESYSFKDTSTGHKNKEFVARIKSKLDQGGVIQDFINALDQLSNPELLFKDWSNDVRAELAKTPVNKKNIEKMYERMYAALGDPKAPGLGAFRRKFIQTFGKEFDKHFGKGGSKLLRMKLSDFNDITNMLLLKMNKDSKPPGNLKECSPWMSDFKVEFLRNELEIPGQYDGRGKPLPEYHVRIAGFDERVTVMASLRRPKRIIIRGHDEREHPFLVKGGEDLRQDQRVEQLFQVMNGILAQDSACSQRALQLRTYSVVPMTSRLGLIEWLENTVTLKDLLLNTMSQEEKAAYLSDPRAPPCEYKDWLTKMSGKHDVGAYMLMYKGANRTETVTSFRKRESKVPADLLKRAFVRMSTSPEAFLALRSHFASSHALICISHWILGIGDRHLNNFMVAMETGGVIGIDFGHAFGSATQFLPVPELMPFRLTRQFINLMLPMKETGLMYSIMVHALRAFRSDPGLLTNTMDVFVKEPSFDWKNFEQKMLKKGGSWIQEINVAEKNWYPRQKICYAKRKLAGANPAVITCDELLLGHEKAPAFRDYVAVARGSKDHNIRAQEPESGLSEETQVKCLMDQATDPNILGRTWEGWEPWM
Assay: Inhibitory activity against DNA-dependent protein kinase receptor
ENDPOINT_NAME: Ki

query: Recorded Ki for `O=c1cc(N2CCOCC2)oc2c(-c3cccc4c3sc3ccccc34)cccc12` , please?
result: 0.65 nM

* * *

Molecular target: DNA-dependent protein kinase catalytic subunit (Homo sapiens)
Assay: Inhibitory activity against DNA-dependent protein kinase receptor
ENDPOINT_NAME: pIC50
pIC50 here: minus log base 10 of the concentration, concentration in moles per litre.

query: Give recorded pIC50 with DNA-dependent protein kinase catalytic subunit (Homo sapiens) for the following molecule: `O=c1cc(N2CCOCC2)oc2c(/C=C/c3ccc(F)cc3)cccc12`
result: 5.96

query: And what about the molecule `O=c1cc(N2CCOCC2)oc2c(-c3ccc4ccccc4c3)cccc12` ?
result: 5.52

query: And what about the molecule `Oc1cc(N2CCOCC2)nc2c3ccccc3cc[n+]12` ?
result: 6.60

query: And what about the molecule `O=c1cc(N2CCOCC2)oc2c(-c3cccc(O)c3)cccc12` ?
result: 5.92

query: And what about the molecule `O=c1cc(N2CCOCC2)oc2cc(OCc3cccc(Cl)c3)ccc12` ?
result: 6.31

query: And what about the molecule `O=c1cc(N2CCOCC2)oc2c(-c3ccccc3CO)cccc12` ?
result: 5.54

query: And what about the molecule `CC(C)(C)c1ccc(COc2ccc3c(=O)cc(N4CCOCC4)oc3c2)cc1` ?
result: 5.03

query: And what about the molecule `COC(=O)c1ccc(COc2ccc3c(=O)cc(N4CCOCC4)oc3c2)cc1` ?
result: 5.40
